- System: KRAS-mutant PDC multicell tumor spheroid viability;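 note: viability read after seven days of drug exposure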
- test_method_notes: Anticancer human tumor 521955-158-R2-J5-PDC patient-derived pancreatic carcinoma cell line growth inhibition [KRAS2]
- measurement_setup: second compound 3.16 µM; first compound 0.1 µM; hits give low values
viability, T/C strictly less than 10% = label 1. Otherwise label 0.

COc1cc2nccc(Oc3ccc(NC(=O)C4(C(=O)Nc5ccc(F)cc5)CC4)cc3)c2cc1OC + CNCc1ccccc1-c1csc(C(C)Nc2nc(C)nc3cc(OC)c(OC)cc23)c1    label 1
COc1cc(Nc2ncc3c(n2)-c2ccc(Cl)cc2C(c2c(F)cccc2OC)=NC3)ccc1C(=O)O + C=CC(=O)N1CCN(c2nc(=O)n(-c3c(C)ccnc3C(C)C)c3nc(-c4c(O)cccc4F)c(F)cc23)C(C)C1    label 0
CC1(C)CCC(CN2CCN(c3ccc(C(=O)NS(=O)(=O)c4ccc(NCC5CCOCC5)c([N+](=O)[O-])c4)c(Oc4cnc5[nH]ccc5c4)c3)CC2)=C(c2ccc(Cl)cc2)C1 + CNCc1ccccc1-c1csc(C(C)Nc2nc(C)nc3cc(OC)c(OC)cc23)c1    label 1
Cn1nccc1Nc1nccc(-c2cc3c(s2)C(C)(C)N(CCN2CCOCC2)C3=O)n1 + C=CC(=O)N1CCN(c2nc(OCC3CCCN3C)nc3c2CCN(c2cccc4cccc(C)c24)C3)CC1CC#N    label 0
COC(=O)c1ccc2c(C(=Nc3ccc(N(C)C(=O)CN4CCN(C)CC4)cc3)c3ccccc3)c(O)[nH]c2c1 + COc1cc2nc(C)nc(NC(C)c3cc(N)cc(C(F)(F)F)c3)c2cc1OC1CCOC1    label 0

Report whether reported viability, T/C is lower than 10% (strictly) for O=C(c1cc(Cc2n[nH]c(=O)c3ccccc23)ccc1F)N1CCN(C(=O)C2CC2)CC1 + CC1OCC2(CCN(c3cnc(Sc4ccnc(N)c4Cl)c(N)n3)CC2)C1N
label 0

// data source = PubChem BioAssay AID1963871
